Each entry below carries its reported Plant response rating, Lambsquarter.
Tested on: lambsquarters
Experimental protocol: Test B preemergence/postemergence greenhouse plant response rating 0 to 10
Assay type: in vivo, Chenopodium album
Measurement context: PREEMERGENCE, Rate 50 g/ha; 0 to 10 scale
No unit in the answer, only the number.

C=C(Cl)COc1cc(-c2nn3c(c2Cl)CCCC3)c(F)cc1Cl = 10
CC(C)OC(=O)COc1cc(-c2nn3c(c2Br)CCCC3)c(F)cc1Cl = 10
CCCOc1cc(-c2nn3c(c2Cl)CCCC3)c(F)cc1Cl = 10
CCN1C(=O)COc2cc(F)c(-c3nn4c(c3Cl)CCCC4)cc21 = 10
FCCCOc1cc(-c2nn3c(c2Cl)CCCC3)c(F)cc1Cl = 9
C#CCN1C(=O)COc2cc(F)c(-c3nn4c(c3Cl)CCCC4)cc21 = 10

Attention now shifts to the item below.
Recorded Plant response rating, Lambsquarter for `CCOC(=O)COc1cc(-c2nn3c(c2Cl)CCCC3)c(F)cc1Cl` , please?
9

---

Test system: velvetleaf
Experimental protocol: Test B preemergence/postemergence greenhouse plant response rating 0 to 10
Assay type: in vivo, Abutilon theophrasti
Measurement context: PREEMERGENCE, Rate 50 g/ha; 0 to 10 scale
Text: Seeds of barley (Hordeum vulgare), barnyardgrass (Echinochloa crus-galli), bedstraw (Galium aparine), blackgrass (Alopecurus myosuroides), […] […] Treated plants and controls were maintained in a greenhouse for twelve to sixteen days, after which all species were compared to controls and visually evaluated. […]
Labelling field: enter 1.0 if recorded Plant response rating, Velvetleaf is less than 6. Enter 0.0 if it equals or exceeds that cut-off.

Would you please look over these solved cases?
O=C1COc2cc(F)c(-c3nn4c(c3Br)CCCC4)cc2N1 = 0.0
COCOc1cc(-c2nn3c(c2Cl)CCCC3)c(F)cc1Cl = 0.0
COCCOc1cc(-c2nn3c(c2Cl)CCCC3)c(Cl)cc1Cl = 1.0

Next compound, please.
# strict comparison: is reported Plant response rating, Velvetleaf < 6? input = `CCC(=O)Oc1cc(-c2nn3c(c2Cl)CCCC3)c(F)cc1Cl`
1.0

---

Test system: barnyardgrass
Experimental protocol: Test B preemergence/postemergence greenhouse plant response rating 0 to 10
Assay type: in vivo, Echinochloa crus-galli
Measurement context: PREEMERGENCE, Rate 50 g/ha; 0 to 10 scale
Documented Plant response rating, Barnyardgrass across a set of compounds
Lab note: record just the number, no unit beside it.

Which Plant response rating, Barnyardgrass reading was recorded for the compound `CC(C)OC(=O)COc1cc(-c2nn3c(c2Br)CCCC3)c(F)cc1Cl` ?
0

Give the measured Plant response rating, Barnyardgrass of C#CC(C)N1C(=O)COc2cc(F)c(-c3nn4c(c3Cl)CCCC4)cc21 (stereo not drawn) .
0

Quick one: Plant response rating, Barnyardgrass of `C#CCN1C(=O)COc2cc(F)c(-c3nn4c(c3Br)CCCC4)cc21` ?
0

---

Test system: bedstraw
Experimental protocol: Test B preemergence/postemergence greenhouse plant response rating 0 to 10
Format: in vivo, Galium aparine
Measurement context: POSTEMERGENCE, Rate 200 g/ha; 0 to 10 scale
Quantity name: Plant response rating, Bedstraw
A bare number is all that is needed in reply.

Reference set, count: 5
Fc1cc(Cl)c(-c2ccccc2)cc1-c1nn2c(c1Cl)CCCC2 = 8
CC(C)Oc1cc(-c2nn3c(c2Cl)CCCC3)c(F)cc1Cl = 9
CCCOc1cc(-c2nn3c(c2Cl)CCCC3)c(F)cc1Cl = 9
CCC(C)Oc1cc(-c2nn3c(c2Cl)CCCC3)c(F)cc1Cl (stereo not shown) = 9
CCS(=O)(=O)Oc1cc(-c2nn3c(c2Cl)CCCC3)c(F)cc1Cl = 9

Fill in the blank: the reported Plant response rating, Bedstraw of COC(=O)C(C)Oc1cc(-c2nn3c(c2Cl)CCCC3)c(F)cc1Cl (stereo not shown) is ____.
10

State the recorded Plant response rating, Bedstraw for this entry: `CCC(=O)Oc1cc(-c2nn3c(c2Cl)CCCC3)c(F)cc1Cl`
10

---

Test system: giant foxtail
Experimental protocol: Test B preemergence/postemergence greenhouse plant response rating 0 to 10
Type: in vivo, Setaria faberii
Measurement context: PREEMERGENCE, Rate 50 g/ha; 0 to 10 scale
Quantity name: Plant response rating, Giant foxtail
Give only the figure.

Here's what some known entries look like.
Clc1cc(Cl)c(-c2nn3c(c2Cl)CCCC3)cc1OCC1CC1 [Compound 69] = 2
CCS(=O)(=O)Oc1cc(-c2nn3c(c2Cl)CCCC3)c(F)cc1Cl [Compound 25] = 2
CCOC(=O)COc1cc(-c2nn3c(c2Cl)CCCC3)c(Cl)cc1Cl [Compound 73] = 0
CC(C)Oc1cc(-c2nn3c(c2Br)CCCC3)c(F)cc1Cl [Compound 38] = 2
Fc1cc(Cl)c(OCc2ccccc2)cc1-c1nn2c(c1Cl)CCCC2 [Compound 22] = 3
C=CCOC(=O)COc1cc(-c2nn3c(c2Cl)CCCC3)c(F)cc1Cl [Compound 62] = 0
CC(C)(C)C(=O)COc1cc(-c2nn3c(c2Cl)CCCC3)c(Cl)cc1Cl [Compound 77] = 2
C#CC(C)N1C(=O)COc2cc(F)c(-c3nn4c(c3Cl)CCCC4)cc21 (stereo not drawn) [Compound 50] = 3
Clc1ccc(-c2nn3c(c2Cl)CCCC3)c(Cl)c1 [Compound 35] = 2
C=CCOc1cc(-c2nn3c(c2Br)CCCC3)c(F)cc1Cl [Compound 37] = 2

Need Plant response rating, Giant foxtail of C#CC(C)Oc1cc(-c2nn3c(c2Cl)CCCC3)c(Cl)cc1Cl (stereo not drawn) [Compound 74] , thanks.
2

Quick check: Plant response rating, Giant foxtail of CC(C)N1C(=O)COc2cc(F)c(-c3nn4c(c3Cl)CCCC4)cc21 [Compound 31] ?
3

---

Tested on: morningglory
Experimental protocol: Test B preemergence/postemergence greenhouse plant response rating 0 to 10
Format: in vivo, Ipomoea hederacea
Measurement context: PREEMERGENCE, Rate 50 g/ha; 0 to 10 scale
Excerpt: Seeds of barley (Hordeum vulgare), barnyardgrass (Echinochloa crus-galli), bedstraw (Galium aparine), blackgrass (Alopecurus myosuroides), […] […] Treated plants and controls were maintained in a greenhouse for twelve to sixteen days, after which all species were compared to controls and visually evaluated. […]
Reported Plant response rating, Morningglory values are given for each entry in this list.
No unit in the answer, please; the number alone is enough.

Clc1ccc(-c2nn3c(c2Cl)CCCC3)c(Cl)c1 = 0

Write down the reported Plant response rating, Morningglory of `Oc1cc(-c2nn3c(c2Br)CCCC3)c(F)cc1Cl` , test system: morningglory.
0

Given the entry `CC(C)Oc1cc(-c2nn3c(c2Br)CCCC3)c(F)cc1Cl` , what Plant response rating, Morningglory was observed with morningglory?
0

---

System: rice
Experimental protocol: Test B preemergence/postemergence greenhouse plant response rating 0 to 10
Type: in vivo, Oryza sativa
Measurement context: POSTEMERGENCE, Rate 50 g/ha; 0 to 10 scale
Parameter: Plant response rating, Rice. Scope: all listed entries.
Please reply with the number alone, leaving off any unit.

These recorded examples may help you get a feel for the data.
CCN1C(=O)COc2cc(F)c(-c3nn4c(c3Cl)CCCC4)cc21 = 4
Fc1cc(Cl)c(OC2CCCC2)cc1-c1nn2c(c1Cl)CCCC2 = 5

Below: the item to evaluate.
Item C#CC(C)N1C(=O)COc2cc(F)c(-c3nn4c(c3Cl)CCCC4)cc21 (stereo not drawn) has what recorded Plant response rating, Rice?
4

---

Listing of recorded Plant response rating (0 to 10 scale), Cotton by entry.
Tested on: cotton
Experimental protocol: Test B preemergence/postemergence greenhouse plant response rating 0 to 10
Assay type: in vivo, Gossypium hirsutum
Measurement context: PREEMERGENCE, Rate 200 g/ha
Number, no unit, nothing else.

Use these answered entries as a reference point.
Oc1cc(-c2nn3c(c2Br)CCCC3)c(F)cc1Cl = 0
COCOc1cc(-c2nn3c(c2Br)CCCC3)c(F)cc1Cl = 4

Switching to the query record.
Endpoint output: Plant response rating (0 to 10 scale), Cotton of `CON=C(C)c1cc(-c2nn3c(c2Cl)CCCC3)c(F)cc1Cl` . Value?
1

---

Tested on: soybean
Experimental protocol: Test B preemergence/postemergence greenhouse plant response rating 0 to 10
Type: in vivo, Glycine max
Measurement context: PREEMERGENCE, Rate 50 g/ha; 0 to 10 scale
Quantity name: Plant response rating, Soybean
Number only, please.

C#CCOc1cc(-c2nn3c(c2Br)CCCC3)c(F)cc1Cl [Compound 26] = 1

Name the recorded Plant response rating, Soybean for C#CC(C)Oc1cc(-c2nn3c(c2Cl)CCCC3)c(Cl)cc1Cl (stereo not shown) [Compound 74] .
0

Need Plant response rating, Soybean, item COC(=O)C(C)Oc1cc(-c2nn3c(c2Cl)CCCC3)c(F)cc1Cl (stereo not shown) [Compound 28]
0

Consider the compound shown here: CC(C)OC(=O)COc1cc(-c2nn3c(c2Cl)CCCC3)c(F)cc1Cl [Compound 39] What is its recorded Plant response rating, Soybean?
0

// provenance: patent US6358885B1
